These entries and their values trace back to patent US9376387B2.

# Target or test system: hAChE (human erythrocyte membranes as a AChE source) (Homo sapiens, UniProt P22303)
# Construct: human erythrocyte membranes as a AChE source; from tissue; host or cells: human erythrocyte membranes
# Sequence (P22303 32-617 isoform P22303-2 limits assumed): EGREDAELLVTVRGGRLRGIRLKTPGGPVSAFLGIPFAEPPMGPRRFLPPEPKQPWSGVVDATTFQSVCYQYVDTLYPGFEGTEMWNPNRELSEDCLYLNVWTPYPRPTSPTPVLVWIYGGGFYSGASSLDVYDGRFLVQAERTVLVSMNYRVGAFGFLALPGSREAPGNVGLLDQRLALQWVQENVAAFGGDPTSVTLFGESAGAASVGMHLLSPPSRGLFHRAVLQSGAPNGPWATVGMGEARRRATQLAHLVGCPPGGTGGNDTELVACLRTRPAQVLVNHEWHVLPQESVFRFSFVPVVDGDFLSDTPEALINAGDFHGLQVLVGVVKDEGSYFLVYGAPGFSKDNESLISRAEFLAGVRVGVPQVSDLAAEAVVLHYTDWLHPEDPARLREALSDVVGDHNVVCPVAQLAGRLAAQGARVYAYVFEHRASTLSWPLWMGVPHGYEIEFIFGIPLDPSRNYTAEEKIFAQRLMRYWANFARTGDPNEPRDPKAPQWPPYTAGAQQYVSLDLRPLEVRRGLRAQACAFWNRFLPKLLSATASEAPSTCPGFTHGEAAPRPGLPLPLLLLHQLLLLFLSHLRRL
# Test details: acetylcholinesterase (AChE) activity, modified Ellman method
# Format: biochemical
# Conditions used: modified Ellman method, acetylthiocholine iodide substrate, pH=7.4; read-out: hAChE IC50
Readout: IC50 (nM)
Please give a number only; it is taken to be in nM.

Incoming: For the molecule COc1cc2c(cc1OC)C(=O)C(Cc1cc[n+](Cc3ccccc3)cc1Br)C2 (stereo not shown) [Compound 145] , give its measured IC50 value.
Outgoing: 0.36

###

# Target or test system: hAChE (human erythrocyte membranes as a AChE source) (Homo sapiens, UniProt P22303)
# Construct: human erythrocyte membranes as a AChE source; from tissue; host or cells: human erythrocyte membranes
# Test details: acetylcholinesterase (AChE) activity, modified Ellman method
# Format: biochemical
# Conditions used: hAChE IC50, modified Ellman method, acetylthiocholine iodide substrate, pH=7.4
pIC50 overview
For clarity, pIC50 is expressed as the negative log10 of concentration in mol/L.

Check out these entries, answers already filled in.
Molecule	Target or test system	Readout	Quantitative result
CC(=O)C1=CN(Cc2ccccc2C)C=CC1CC1Cc2cc(C)c(C)cc2C1=O (stereo not shown) [Compound 166]	hAChE (human erythrocyte membranes as a AChE source) (Homo sapiens, UniProt P22303)	pIC50	6.19
COc1cc2c(cc1OC)C(=O)C(CC1C=CN(Cc3cccc(Cl)c3)C=C1C(C)=O)C2 (stereo not shown) [Compound 77]	hAChE (human erythrocyte membranes as a AChE source) (Homo sapiens, UniProt P22303)	pIC50	6.27
COc1cc2c(cc1OC)C(=O)C(Cc1cc[n+](Cc3ccccc3)cc1C(C)=O)CC2 (stereo not shown) [Compound 132]	hAChE (human erythrocyte membranes as a AChE source) (Homo sapiens, UniProt P22303)	pIC50	7.62

Now for another entry.
Incoming: Look up and state reported pIC50 for COc1ccc2c(c1)CCC(Cc1cc[n+](Cc3ccccc3Cl)cc1C(C)=O)C2=O (stereo not shown) [Compound 126]
Outgoing: 7.54

###

# Target or test system: hAChE (human erythrocyte membranes as a AChE source) (Homo sapiens, UniProt P22303)
# Construct: human erythrocyte membranes as a AChE source; from tissue; host or cells: human erythrocyte membranes
# Test details: acetylcholinesterase (AChE) activity, modified Ellman method
# Format: biochemical
# Conditions used: hAChE IC50, modified Ellman method, acetylthiocholine iodide substrate, pH=7.4
Readout: IC50 (nM)
Your answer is read as nM, so omit the unit and give the number.

Observe how each entry below is paired with its result.
Molecule	Readout unit	IC50
COc1cc2c(cc1OC)C(=O)C(Cc1cc[n+](Cc3ccccc3)cc1C#N)C2 (centres unmarked)	nM	11.3
COc1ccc2c(c1)CCC(Cc1cc[n+](Cc3ccccc3[N+](=O)[O-])cc1C(C)=O)C2=O (centres unmarked)	nM	57.7
COc1ccc2c(c1)CCC(Cc1cc[n+](Cc3cccc([N+](=O)[O-])c3)cc1C(C)=O)C2=O (centres unmarked)	nM	78.6
COc1ccc2c(c1)CCC(Cc1cc[n+](Cc3cccc(C)c3)cc1C(C)=O)C2=O (centres unmarked)	nM	110
COc1cc2c(cc1OC)C(=O)C(Cc1cc[n+](Cc3cccc(C)c3)cc1Br)C2 (centres unmarked)	nM	0.465
COc1ccc2c(c1)CCC(Cc1cc[n+](Cc3cccc(C)c3)cc1Br)C2=O (centres unmarked)	nM	16.5
COc1ccc2c(c1)CCC(Cc1cc[n+](Cc3ccccc3C)cc1C(C)=O)C2=O (centres unmarked)	nM	10
CC(=O)c1c[n+](Cc2ccccc2C)ccc1CC1Cc2cc3c(cc2C1=O)OCO3 (centres unmarked)	nM	60
COc1cc2c(cc1OC)C(=O)C(CC1C=CN(Cc3ccccc3C)C=C1C(C)=O)C2 (centres unmarked)	nM	428
CC(=O)c1c[n+](Cc2ccccc2C)ccc1CC1Cc2cc(Cl)ccc2C1=O (centres unmarked)	nM	262

Incoming: Give a short answer stating reported IC50 for COc1ccc2c(c1)CCC(Cc1cc[n+](Cc3ccccc3)cc1Br)C2=O (centres unmarked) .
Outgoing: 20

Incoming: Look up and report measured IC50 for this entry: COc1cc2c(cc1OC)C(=O)C(Cc1cc[n+](Cc3ccccc3C)cc1Br)C2 (centres unmarked)
Outgoing: 0.053

Incoming: For the molecule COc1ccc2c(c1)CC(Cc1cc[n+](Cc3ccccc3C)cc1C(C)=O)C2=O (centres unmarked) , report IC50.
Outgoing: 30

Incoming: Please give measured IC50 of the following entry: COc1ccc2c(c1)CCC(Cc1cc[n+](Cc3cccc(C(F)(F)F)c3)cc1C(C)=O)C2=O (centres unmarked)
Outgoing: 308

Incoming: Please report IC50 for the following molecule: COc1cc2c(cc1OC)C(=O)C(Cc1cc[n+](Cc3ccccc3Cl)cc1Br)C2 (centres unmarked)
Outgoing: 0.255

Incoming: Input COc1ccc2c(c1)CCC(Cc1cc[n+](Cc3ccc(F)cc3)cc1C(C)=O)C2=O (centres unmarked) , output reported IC50.
Outgoing: 141

Incoming: Give a short answer stating reported IC50 for COc1cc2c(cc1OC)C(=O)C(Cc1cc[n+](Cc3ccccc3)cc1F)CC2 (centres unmarked) .
Outgoing: 9.1

###

# log10 IC50 values compiled below
# Target or test system: EqBuChE (Equus caballus, UniProt P81908)
# Sequence (P81908 whole entry): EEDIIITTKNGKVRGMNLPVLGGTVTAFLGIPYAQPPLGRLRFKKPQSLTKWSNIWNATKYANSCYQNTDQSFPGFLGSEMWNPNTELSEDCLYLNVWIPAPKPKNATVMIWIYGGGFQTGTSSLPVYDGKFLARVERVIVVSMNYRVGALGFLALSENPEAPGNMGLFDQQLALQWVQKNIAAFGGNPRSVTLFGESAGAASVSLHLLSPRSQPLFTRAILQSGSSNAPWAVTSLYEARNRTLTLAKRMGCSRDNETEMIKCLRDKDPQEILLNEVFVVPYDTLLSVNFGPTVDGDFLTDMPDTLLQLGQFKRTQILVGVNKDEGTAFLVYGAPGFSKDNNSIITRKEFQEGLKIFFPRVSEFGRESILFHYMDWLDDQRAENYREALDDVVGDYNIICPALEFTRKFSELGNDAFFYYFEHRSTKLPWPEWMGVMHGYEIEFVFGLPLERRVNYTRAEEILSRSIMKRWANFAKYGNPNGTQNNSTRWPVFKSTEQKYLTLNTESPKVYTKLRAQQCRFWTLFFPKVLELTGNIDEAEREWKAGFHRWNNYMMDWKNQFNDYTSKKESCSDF
# Test details: biochemical
# Conditions used: EqBuChE IC50
Please interpret these as log10 of IC50 where IC50 is in nM.

Compound	Readout	Quantitative result
COc1ccc2c(c1)CCC(Cc1cc[n+](Cc3ccccc3)cc1Br)C2=O (centres unmarked)	log10 IC50	2.65

Incoming: Tell me log10 IC50 of COc1ccc2c(c1)CCC(Cc1cc[n+](Cc3ccc(Cl)cc3)cc1C(C)=O)C2=O (centres unmarked) when tested on EqBuChE (Equus caballus, UniProt P81908).
Outgoing: 3.78

Incoming: Provide EqBuChE (Equus caballus, UniProt P81908) log10 IC50 reading for COc1ccc2c(c1)CCC(Cc1cc[n+](Cc3ccc(F)cc3)cc1C(C)=O)C2=O (centres unmarked) .
Outgoing: 2.23

###

# Target or test system: EqBuChE (Equus caballus, UniProt P81908)
# Test details: biochemical
# Conditions used: EqBuChE IC50
pIC50: −log10 of the molar value.
Assign class by pIC50: not lower than 6 means 1 (yes); lower than 6 means 0 (no).

Compound	Label class
COc1ccc2c(c1)CCC(Cc1cc[n+](Cc3ccccc3Cl)cc1C(C)=O)C2=O (stereo not shown) [Compound 126]	1 (yes)
COc1ccc2c(c1)CCC(CC1C=CN(Cc3ccccc3F)C=C1C(C)=O)C2=O (stereo not shown) [Compound 55]	0 (no)
COc1ccc2c(c1)CCC(CC1C=CN(Cc3ccc(F)cc3)C=C1C(C)=O)C2=O (stereo not shown) [Compound 155]	0 (no)

Incoming: Reported pIC50 at or above 6? COc1ccc2c(c1)CCC(Cc1cc[n+](Cc3cccc(C(F)(F)F)c3)cc1C(C)=O)C2=O (stereo not shown) [Compound 124]
Outgoing: 0 (no)

Incoming: API: above_or_equal(metric=pIC50, cutoff=6) for item COc1cc2c(cc1OC)C(=O)C(Cc1cc[n+](Cc3ccccc3)cc1F)CC2 (stereo not shown) [Compound 133]
Outgoing: 1 (yes)

Incoming: Determine whether this compound has pIC50 no lower than 6: CC(=O)C1=CN(Cc2ccccc2C)C=CC1CC1Cc2cc(C)ccc2C1=O (stereo not shown) [Compound 163]
Outgoing: 0 (no)

Incoming: I'd appreciate it if you could say whether COc1cc2c(cc1OC)C(=O)C(Cc1cc[n+](Cc3ccccc3C)cc1Br)C2 (stereo not shown) [Compound 141] has pIC50 at least equal to 6.
Outgoing: 0 (no)

Incoming: Say whether CC(=O)c1c[n+](Cc2ccccc2C)ccc1CC1Cc2cc(C)c(C)cc2C1=O (stereo not shown) [Compound 152] shows pIC50 of 6 or more.
Outgoing: 1 (yes)

###

# Target or test system: EqBuChE (Equus caballus, UniProt P81908)
# Test details: biochemical
# Conditions used: read-out: EqBuChE IC50
Readout: IC50

Incoming: Please list IC50 recorded for the compound COc1cc2c(cc1OC)C(=O)C(Cc1cc[n+](Cc3ccccc3)cc1Br)C2 (stereo not shown)
Outgoing: 1790 nM

###

# Target or test system: hAChE (human erythrocyte membranes as a AChE source) (Homo sapiens)
# Construct: human erythrocyte membranes as a AChE source; from tissue; host or cells: human erythrocyte membranes
# Test details: acetylcholinesterase (AChE) activity, modified Ellman method
# Type: biochemical
# Conditions used: hAChE IC50, modified Ellman method, acetylthiocholine iodide substrate, pH=7.4
The label is 1 for IC50 below 0.07 µM and -1 for IC50 equal to or exceeding 0.07 µM.

Compound	Target or test system	Label class
COc1cc2c(cc1OC)C(=O)C(Cc1cc[n+](Cc3cccc(Cl)c3)cc1C(C)=O)C2 (stereo not shown)	hAChE (human erythrocyte membranes as a AChE source) (Homo sapiens)	1
COc1ccc2c(c1)CCC(Cc1cc[n+](Cc3ccc(C)cc3)cc1C(C)=O)C2=O (stereo not shown)	hAChE (human erythrocyte membranes as a AChE source) (Homo sapiens)	-1
COc1ccc2c(c1)CCC(Cc1cc[n+](Cc3ccccc3)cc1C(C)=O)C2=O (stereo not shown) [Compound 82]	hAChE (human erythrocyte membranes as a AChE source) (Homo sapiens)	-1
COc1cc2c(cc1OC)C(=O)C(CC1C=CN(Cc3ccccc3)C=C1C(C)=O)CC2 (stereo not shown)	hAChE (human erythrocyte membranes as a AChE source) (Homo sapiens)	-1
CC(=O)c1c[n+](Cc2ccccc2C)ccc1CC1Cc2cc(C)c(C)cc2C1=O (stereo not shown)	hAChE (human erythrocyte membranes as a AChE source) (Homo sapiens)	1

Now take the following compound into account.
Incoming: Record COc1ccc2c(c1)CCC(Cc1cc[n+](Cc3ccc(Cl)cc3)cc1C(C)=O)C2=O (stereo not shown) : is its IC50 strictly below 0.07 µM?
Outgoing: -1
